biological target: Human LBAT (Homo sapiens); construct: kept under Geneticin selection; experiment: LBAT (h/m) assay, human LBAT-overexpressing cells, 3H-taurocholic acid uptake; details: 0.3 μM 3H-taurocholic acid and 7.5 μM cold taurocholic acid, 20 minutes, read-out: hLBAT IC50
Sequence (Q14973 whole entry): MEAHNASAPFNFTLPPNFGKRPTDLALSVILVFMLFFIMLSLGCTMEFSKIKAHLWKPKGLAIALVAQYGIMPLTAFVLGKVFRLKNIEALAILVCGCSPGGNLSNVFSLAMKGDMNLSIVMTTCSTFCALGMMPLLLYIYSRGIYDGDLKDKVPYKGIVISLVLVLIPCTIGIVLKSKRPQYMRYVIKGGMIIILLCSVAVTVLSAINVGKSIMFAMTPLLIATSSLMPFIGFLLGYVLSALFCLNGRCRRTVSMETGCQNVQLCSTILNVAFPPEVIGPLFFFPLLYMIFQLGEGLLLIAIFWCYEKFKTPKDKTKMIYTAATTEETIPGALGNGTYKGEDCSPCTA
property: IC50 (nM)

Please review the following examples before continuing.
compound: CCCCC1CN(c2ccccc2)c2cc(SC)c(OCC(OC)C(=O)O)cc2S(=O)(=O)N1C (single isomer, unassigned) [31, stereoisomer 2]
target.of.assay: Human LBAT (Homo sapiens)
IC50 [nM]: 22
--
compound: CCCCC1CN(c2ccccc2)c2cc(SC)c(OCCC(=O)O)cc2S(=O)(=O)C1 (stereo not drawn) [Example 25]
target.of.assay: Human LBAT (Homo sapiens)
IC50 [nM]: 93
--
compound: CCCCC1CN(c2ccccc2)c2cc(SC)c(OCC(F)(F)C(=O)O)cc2S(=O)(=O)N1C (stereo not drawn) [Example 20]
target.of.assay: Human LBAT (Homo sapiens)
IC50 [nM]: 1.1

A. CCCCC1CN(c2ccccc2)c2cc(SC)c(OCC(C)(OC)C(=O)O)cc2S(=O)(=O)N1C (single isomer, unassigned) [24, diastereomer 1]
B. CCCCC1CN(c2ccccc2)c2cc(SCC)c(OCC(C)(C)C(=O)O)cc2S(=O)(=O)N1C (single isomer, unassigned) [6, enantiomer 1]
Query string: For this pair, A and B , which shows a numerically higher IC50? Answer = label.
Result string: B
(B: 536 nM, A: 8.4 nM)

###

Assay: Bidirectional permeability assay (Caco-2 cells)
Format: in vitro ADME
Conditions: human, Caco-2, pH 7.4, secretory direction (B2A), 10 μM in FaSSIF buffer
Procedure: Bidirectional Permeability Assay (Caco-2 Cells) […] On the day of assay, Caco-2 monolayers were washed twice with transport buffer (HBSS, pH 7.4) and pre-incubated for 30 min (37° C., 5% CO2, 95% RH) in an incubator. The electrical resistance of the monolayers was measured with a Millicell®-ERS system. […] The mean apparent permeability (Papp, ×10^−6 cm/sec) of the test compounds, atenolol, propranolol and digoxin were calculated as follows: […]
property: Papp B→A at 120 min, 10 μM (×10⁻⁶ cm/s)

Please review the following examples before continuing.
molecule: CCCCC1CN(c2ccccc2)c2cc(SC)c(OCC(OC)C(=O)O)cc2S(=O)(=O)N1C (single isomer, unassigned) [32, diastereomer 1]
units.symbol: ×10⁻⁶ cm/s
Papp B→A at 120 min, 10 μM: 15.9
//
molecule: CCCCC1CN(c2ccccc2)c2cc(SCC)c(OCC3(C(=O)O)CC3)cc2S(=O)(=O)N1C (single isomer, unassigned) [8, enantiomer 1]
units.symbol: ×10⁻⁶ cm/s
Papp B→A at 120 min, 10 μM: 5
//
molecule: CCCCC1CN(c2ccccc2)c2cc(SC)c(OCC(C)(C)C(=O)O)cc2S(=O)(=O)N1C (single isomer, unassigned) [2, enantiomer 2]
units.symbol: ×10⁻⁶ cm/s
Papp B→A at 120 min, 10 μM: 15.2

I. CCCCC1CN(c2ccccc2)c2cc(SCC)c(OCC3(C(=O)O)CC3)cc2S(=O)(=O)N1C (centres unmarked) [Example 7]
II. CCCCC1CN(c2ccccc2)c2cc(SC)c(OCC3(C(=O)O)CC3)cc2S(=O)(=O)N1C (single isomer, unassigned) [4, enantiomer 2]
III. CCCCC1CN(c2ccccc2)c2cc(SC)c(OCC(C)(OC)C(=O)O)cc2S(=O)(=O)N1C (centres unmarked) [Example 22]
IV. CCCCC1CN(c2ccccc2)c2cc(SCC)c(OCC(C)(C)C(=O)O)cc2S(=O)(=O)N1C (single isomer, unassigned) [6, enantiomer 2]
Query string: Order the records by Papp B→A at 120 min, 10 μM, with each subsequent value no larger than the one before. Please reply with the labels ordered as requested. Many thanks.
Result string: III, II, IV, I
(III: 21.5 ×10⁻⁶ cm/s, II: 13 ×10⁻⁶ cm/s, IV: 6.5 ×10⁻⁶ cm/s, I: 3.8 ×10⁻⁶ cm/s)
